For each of the compounds below, state its percentage damage caused to the plant, ECHCG.
# Test system: Echinochloa crus-galli (ECHCG)
# Experimental Details: Post-emergence herbicidal glasshouse test
# Assay type: in vivo
# Conditions Used: sprayed after 8 days cultivation, 250 g/ha, evaluated after 13 days, five-point scale

1. Fc1cccc(Oc2ncc(Br)s2)c1-c1cc(C(F)F)no1 | 5 (5=81-100%)

I have 4 compounds here; please give me percentage damage caused to the plant, ECHCG for each one.
1. Fc1cccc(Oc2ncc(Cl)s2)c1-c1cc(C(F)F)no1
2. FC(F)c1cc(-c2c(Br)cccc2Oc2nc(C(F)F)c(Cl)s2)on1
3. FC(F)c1cc(-c2c(Br)cccc2Oc2ncc(C(F)F)s2)on1
4. FC(F)c1cc(-c2c(Br)cccc2Oc2nc(C(F)(F)F)cs2)on1

[reply]
["4 (4=61-80%)", "1 (1=0-20%)", "4 (4=61-80%)", "3 (3=41-60%)"]

Here are 5 compounds. What values of percentage damage caused to the plant, ECHCG were reported for them?
1. FC(F)c1cc(-c2c(Cl)cccc2Oc2ncc(C(F)F)s2)on1
2. Fc1cccc(Oc2ncc(C(F)F)s2)c1-c1cc(C(F)F)no1
3. FC(F)c1cc(-c2c(Cl)cccc2Oc2nc(Cl)c(Cl)s2)on1
4. Fc1cccc(Sc2ncc(Cl)s2)c1-c1cc(C(F)F)no1
5. Fc1cccc(-c2cc(C(F)F)no2)c1Oc1ncc(Cl)s1

[reply]
["4 (4=61-80%)", "5 (5=81-100%)", "2 (2=21-40%)", "2 (2=21-40%)", "3 (3=41-60%)"]

Provide percentage damage caused to the plant, ECHCG for all items below, preserving their order.
1. Fc1cccc(Oc2nc(Br)cs2)c1-c1cc(C(F)F)no1
2. Fc1cccc(Oc2nc(Cl)cs2)c1-c1cc(C(F)F)no1
3. C=Cc1cnc(Oc2cccc(F)c2-c2cc(C(F)F)no2)s1
4. Cc1cccc(-c2cc(C(F)F)no2)c1Oc1ncc(Cl)s1
5. N#Cc1cccc(Oc2ncc(Cl)s2)c1-c1cc(C(F)F)no1
6. Fc1cccc(Oc2nc(C(F)(F)F)cs2)c1-c1cc(C(F)F)no1
7. FC(F)c1cc(-c2c(Br)cccc2Oc2ncc(Br)s2)on1
8. FC(F)c1cc(-c2c(Cl)cccc2Oc2ncc(Cl)s2)on1

[reply]
["4 (4=61-80%)", "2 (2=21-40%)", "4 (4=61-80%)", "3 (3=41-60%)", "3 (3=41-60%)", "4 (4=61-80%)", "5 (5=81-100%)", "5 (5=81-100%)"]

Please state, for each entry, its recorded percentage damage caused to the plant, ECHCG.
1. FC(F)c1cc(-c2ccccc2Oc2ncc(Cl)s2)on1
2. FC(F)c1cc(-c2c(Br)cccc2Oc2ncc(Cl)s2)on1

[reply]
1: 4 (4=61-80%); 2: 5 (5=81-100%)

Please state, for each entry, its recorded percentage damage caused to the plant, ECHCG.
1. FC(F)c1cc(-c2ccccc2Oc2ncc(C(F)F)s2)on1
2. FC(F)c1cc(-c2c(Cl)cccc2Oc2ncc(Br)s2)on1
3. Fc1cccc(Oc2nc(Cl)c(Cl)s2)c1-c1cc(C(F)F)no1

[reply]
["1 (1=0-20%)", "5 (5=81-100%)", "1 (1=0-20%)"]

Dear reader, for each entry below, please note its percentage damage caused to the plant, ECHCG.
1. Fc1cccc(Oc2nc(C(F)F)cs2)c1-c1cc(C(F)F)no1
2. N#Cc1cccc(Oc2ncc(Br)s2)c1-c1cc(C(F)F)no1
3. N#Cc1cccc(Oc2ncc(C(F)F)s2)c1-c1cc(C(F)F)no1

[reply]
1. 2 (2=21-40%)
2. 2 (2=21-40%)
3. 3 (3=41-60%)

Hi team, please reply with percentage damage caused to the plant, ECHCG for each item in this list.
1. Cc1cnc(Oc2cccc(F)c2-c2cc(C(F)F)no2)s1
2. Fc1cccc(Oc2nccs2)c1-c1cc(C(F)F)no1
3. Fc1cccc(Oc2nc(C(F)F)c(Cl)s2)c1-c1cc(C(F)F)no1
4. FC(F)c1cc(-c2c(Br)cccc2Oc2nc(Cl)c(Cl)s2)on1

[reply]
4 (4=61-80%)
1 (1=0-20%)
1 (1=0-20%)
4 (4=61-80%)
